- System Under Test: hGPR120 (Homo sapiens, UniProt Q5NUL3)
- Sequence (Q5NUL3 whole entry): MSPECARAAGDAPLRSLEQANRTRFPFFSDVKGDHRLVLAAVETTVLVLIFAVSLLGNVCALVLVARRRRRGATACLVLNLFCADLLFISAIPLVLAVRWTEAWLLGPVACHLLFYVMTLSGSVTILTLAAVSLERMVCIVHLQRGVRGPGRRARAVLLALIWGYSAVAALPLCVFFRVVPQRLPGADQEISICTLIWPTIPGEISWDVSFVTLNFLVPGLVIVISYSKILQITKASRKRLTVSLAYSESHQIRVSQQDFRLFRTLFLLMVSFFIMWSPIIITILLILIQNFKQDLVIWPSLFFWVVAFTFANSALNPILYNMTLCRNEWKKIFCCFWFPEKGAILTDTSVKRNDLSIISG
- Method Summary: Measurement of Activity of GPR120 Agonist (Cell-Based Assay), Calcium 5 dye fluorescence
- Condition Info: CHO-K1 cells expressing Ga16 and hGPR120
pEC50: −log10 of the molar value.
compounds and their reported pEC50

Use the examples below as a reference point.
{"Compound": "O=C(O)CCc1ccc2cc(-c3ccccc3Oc3ccccc3F)ccc2c1", "pEC50": "4.70 to 5.70"}
{"Compound": "CN(Cc1cc(O)no1)c1ccc(-c2cccc(OC3CCC3)n2)cc1", "pEC50": "> 6.70"}
{"Compound": "O=C(O)CCCOc1c(F)cc(-c2cccc(OCC3CCC3)c2)cc1F", "pEC50": "> 6.70"}

Challenge: # returns recorded pEC50 (system: hGPR120 (Homo sapiens, UniProt Q5NUL3)) for `CCCOc1ccnc(-c2cc(F)c(N3CCC(CC(=O)O)CC3)c(F)c2)n1`
Response given: > 6.70

Challenge: # returns recorded pEC50 (system: hGPR120 (Homo sapiens, UniProt Q5NUL3)) for O=C(O)C1CC1COc1c(F)cc(-c2nccc(OCC3CC3)n2)cc1F (centres unmarked)
Response given: 5.70 to 6.70
